Values from PubChem BioAssay (NCI)

This listing pairs molecules with measured growth.
tested on: RPMI-8226 leukemia; test: NCI-60 one-dose screen, 48 h (100 = growth as untreated, 0 = no growth, -100 = all killed); settings: 10 µM unless noted
Compounds without any hit were thinned out: in the full panel of roughly 83,000, 20% have a hit.
# unit: % | format: bare number

- molecule: "ClCCN(CCCl)c1ccc(-n2cnc3c(Cl)ncnc32)cc1"
  growth / %: 59.6
- molecule: "N#CC1C(C#N)C2CCC1C1C2N1c1ccccc1 (configuration not stated)"
  growth / %: 95.8
- molecule: "CC[C@H](C)[C@@H]1OC(=O)C(C)(C)[C@H](O)[C@H](Cc2ccccc2)OC(=O)[C@H](C(C)C)OC(=O)[C@@H](NC(=O)c2cccc(NC=O)c2O)[C@@H](C)OC1=O"
  growth / %: 29
- molecule: "C=CC[Se]C(=O)c1ccccc1OC(C)=O"
  growth / %: -22.8
- molecule: "O=C(c1ccccc1O)c1[nH]c(Cl)c(Cl)c1-n1c(C(=O)c2ccccc2O)cc(Cl)c1Cl"
  growth / %: -30.1
- molecule: "CC1(C)N=C(N)N=C(N)N1c1ccc(CCCCc2ccc(Cl)c(S(=O)(=O)F)c2)c(Cl)c1"
  growth / %: -24.2
- molecule: "O=C1CNC(c2ccccc2)c2cc(Cl)ccc2N1 (configuration not stated)"
  growth / %: 109
- molecule: "COc1ccc(C(O)(C(=O)O)c2ccc(OC)cc2)cc1"
  growth / %: 78.2

Given the entry CC(=O)O[C@H](C[C@H](C(C)C)N(C)C(=O)[C@@H](NC(=O)[C@H]1CCCCN1C)C(C)(C)C)c1nc(C(=O)N[C@@H](Cc2ccccc2)C[C@H](C)C(=O)O)cs1 , report its measured growth. 16.8

// returns reported growth for input CC(=O)/C=C/c1ccc2c(c1)OCO2 91.5

Reported growth for COC(=O)[C@@H](C)C[C@H](Cc1ccccc1)NC(=O)c1csc([C@@H](C[C@H](C(C)C)N(C)C(=O)[C@@H](NC(=O)[C@H]2CCCCN2C)C(C)C)OC(C)=O)n1 : what is it? 8.34

Which growth is listed for CCOP(=O)(Nc1ccc2c(c1)/C(=N/NC(N)=S)c1ccccc1-2)OCC ? 93.5

Report growth for Cn1cc(-c2csc(-c3cn(CCN4CCOCC4)c4ccccc34)n2)c2cccnc21 please. 29.6

====

test system: CAKI-1 renal; test: NCI-60 one-dose screen, 48 h (100 = growth as untreated, 0 = no growth, -100 = all killed); settings: 10 µM unless noted
About 83,000 compounds went through this panel and 20% of them were active in at least one assay; those are over-represented in the sample as a whole.
readout: growth (%)
Your answer is read as %, so omit the unit and give the number.

Here are 4 compounds together with their reported answers.
- compound: "O=C([O][Hg][c]1ccccc1)c1ccccc1"
  resultUnit: "%"
  growth: -89.3
- compound: "O=C1OCCC1Br (stereo not given)"
  resultUnit: "%"
  growth: 95
- compound: "COc1cc(C=Nc2cccc(Br)c2)ccc1N(CCCl)CCCl"
  resultUnit: "%"
  growth: 5.9
- compound: "O=C(CC1(O)C(=O)N(Cc2ccccc2)c2ccc(Cl)cc21)c1ccc(C(=O)NCC2CCC3(CC2)OOC2(CCCCC2)OO3)cc1 (stereo not given)"
  resultUnit: "%"
  growth: -94.3

The record that follows has no growth shown yet.
Which growth value belongs to CN1C(=O)C23CC4(C56CC78SSC(CO)(C(=O)N7C5Nc5ccccc56)N(C)C8=O)c5ccccc5NC4N2C(=O)C1(CO)SS3 (stereo not given) ? -98.7

====

system: SF-268 CNS; test: NCI-60 one-dose screen, 48 h; conditions: 10 µM unless noted
This is part of a sample that, as a whole, favours compounds with a hit. Of some 83,000 tested, about 20% had one in any assay. Calls of active or inactive are those of the source. Rule for the calls: active = growth percent below 10; inactive = the rest.
A correct response names exactly one class from active, inactive

Below, 5 compounds whose answers are already recorded.
- compound: "CC[CH2][Sn]([Cl])([Cl])[CH2]CC"
  measuredTarget: "SF-268 CNS"
  assignedClass: "inactive"
- compound: "Nc1nc([Se])c2ncn(C3OC(CO)C(O)C3O)c2n1 (stereo unspecified)"
  measuredTarget: "SF-268 CNS"
  assignedClass: "inactive"
- compound: "COC(=O)[C@@H](C)C[C@H](Cc1ccc(F)cc1)NC(=O)c1csc([C@@H](C[C@H](C(C)C)N(C)C(=O)[C@@H](NC(=O)[C@H]2CCCCN2C)C2CC2)OC(C)=O)n1"
  measuredTarget: "SF-268 CNS"
  assignedClass: "inactive"
- compound: "O=C1CNC(c2ccccc2)c2cc(Cl)ccc2N1 (stereo unspecified)"
  measuredTarget: "SF-268 CNS"
  assignedClass: "inactive"
- compound: "CNC(=O)Oc1ccc2c(c1)OCO2"
  measuredTarget: "SF-268 CNS"
  assignedClass: "inactive"

Here is the next item to consider.
Record lookup: outcome of this test for CCOC(=O)[C@@H](C)C[C@H](Cc1ccccc1)NC(=O)c1csc([C@@H](C[C@H](C(C)C)N(C)C(=O)[C@@H](NC(=O)[C@H]2CCCCN2C)C(C)(C)C)OC(C)=O)n1 ? inactive

====

system: HOP-62 NSCLC; assay: NCI-60 one-dose screen, 48 h; details: 10 µM unless noted
Compounds without any hit were thinned out: in the full panel of roughly 83,000, 20% have a hit. Activity calls are given as the source filed them. Rule for the calls: active = growth percent below 10; inactive = the rest.
Your answer must be one of the following: active, inactive

A selection of reference data follows.
- molecule: "CCCCN1CCCC[C@@H]1C(=O)N[C@H](C(=O)N(C)[C@H](C[C@@H](OC(C)=O)c1nc(C(=O)NC2CCC(C(=O)OC)CC2)cs1)C(C)C)C(C)C (some centres undefined)"
  assignedClass: "inactive"
- molecule: "CC1(C)N=C(N)N=C(N)N1c1ccc(CCCCc2ccc(Cl)c(S(=O)(=O)F)c2)c(Cl)c1"
  assignedClass: "inactive"
- molecule: "CCOC(=O)C(Cc1ccc(N(CCCl)CCCl)cc1)NC(=O)C(CC(C)C)NC(C)=O (centres undefined)"
  assignedClass: "inactive"

As a next step, examine the molecule that follows.
For COC1CC2c3ccccc3C1C(C)=[N+]2C (centres undefined) , which call appears in the assay record? inactive

====

system: K-562 leukemia; test: NCI-60 one-dose screen, 48 h; settings: 10 µM unless noted
Compounds without any hit were thinned out: in the full panel of roughly 83,000, 20% have a hit. Calls of active or inactive are those of the source. How the source made its calls: active means growth percent below 10; inactive means the rest.
# valid calls are true (1) = active, false (0) = inactive; nothing else

As a guide, the following entries are already answered.
- compound: "O=C1C2C(C(=O)[N]1[Hg][c]1ccccc1)C1(Cl)C(Cl)=C(Cl)C2(Cl)C1(Cl)Cl (stereo unspecified)"
  assignedClass: "true (1)"
- compound: "CC(=O)Nc1ccc(NC(=O)c2ccc([As](O)O)cc2)cc1"
  assignedClass: "false (0)"
- compound: "CCCCCN(CCCCC)CC(O)c1cc(Cl)ccc1OC (stereo unspecified)"
  assignedClass: "false (0)"
- compound: "CC(C)[C@@H]1NC(=O)[C@]2(C)CSC(=N2)c2csc(n2)CNC(=O)C[C@@H](/C=C/CCS)OC1=O"
  assignedClass: "true (1)"
- compound: "C/C=C(\\C)C(=O)O[C@@H]1C(O)[C@H]2OC(COC(=O)CCC(=O)CCCCCC[C@H](CCCCC)O[C@@H]3OC(C)[C@H](OC(C)=O)C(O)[C@H]3O2)[C@H]1OC(=O)/C=C/c1ccccc1 (stereo partly specified)"
  assignedClass: "false (0)"

// param item: CC(=O)O[C@H]1CC[C@]2(C)[C@H]3CC[C@]4(C)[C@@H](OC(C)=O)CC[C@H]4[C@@H]3[C@@H](C)[C@]2(O)C1 ; yields the recorded call false (0)

Recorded test outcome, item COc1ccc(Nc2ccc([N+](=O)[O-])cc2[N+](=O)[O-])cc1CN(CCCl)CCCl false (0)

====

tested on: M14 melanoma; test: NCI-60 one-dose screen, 48 h (100 = growth as untreated, 0 = no growth, -100 = all killed); details: 10 µM unless noted
This is part of a sample that, as a whole, favours compounds with a hit. Of some 83,000 tested, about 20% had one in any assay.
# binarize growth: threshold 30% inclusive, high side true, low side false

Entry C/C(=C\c1ccn(-c2ccc(N)cc2C(F)(F)F)n1)[C@@H]1C[C@@H]2O[C@]2(C)CCC[C@H](C)[C@H](O)[C@@H](C)C(=O)C(C)(C)[C@@H](O)CC(=O)O1 : is its growth no less than 30%? false

====

tested on: SK-MEL-5 melanoma; experiment: NCI-60 one-dose screen, 48 h; conditions: 10 µM unless noted
This is part of a sample that, as a whole, favours compounds with a hit. Of some 83,000 tested, about 20% had one in any assay. Activity calls are given as the source filed them. Rule for the calls: active = growth percent below 10; inactive = the rest.
Your response should consist of one outcome taken from active, inactive

Take a look at these entries with their results.
- compound: "COC(=O)[C@@H](C)C[C@H](Cc1ccccc1)NC(=O)c1csc([C@@H](C[C@H](C(C)C)N(C)C(=O)[C@@H](NC(=O)[C@H]2CCCN2C)C2CC2)OC(C)=O)n1"
  assignedClass: "active"
- compound: "CC[C@]12C=CCN3CC[C@@]4(c5ccc(OC)cc5N(C)[C@H]4[C@@](O)(C(=O)OC)[C@@H]1OC(=O)CCCC[P+](c1ccccc1)(c1ccccc1)c1ccccc1)[C@@H]32"
  assignedClass: "active"
- compound: "CC[C@H](C)[C@H](NC(=O)c1nccn1C)C(=O)N(C)[C@H](C[C@@H](OC(C)=O)c1nc(C(=O)N[C@@H](Cc2ccccc2)C[C@H](C)C(=O)OC)cs1)C(C)C"
  assignedClass: "active"

How was CC1=C(CN)C2=C(C)C3(CC3)[C@@](C)(O)C(=O)C2=C1 classified in this test? inactive

Hello, I am checking results. What call was entered for Cn1cc(C2=C(c3cn(C4CCN(Cc5ccccn5)CC4)c4ccccc34)C(=O)NC2=O)c2ccccc21 ? inactive

Identify the outcome logged in this assay for the compound shown: CC(C)CCC(=O)O[C@H]1CC[C@H]2[C@@H]3CCC4=CC(=O)CC[C@]4(C)[C@H]3CC[C@]12C inactive
